Target: PI3K β (p110β/p85α) (Homo sapiens)
Construct: purchased Upstate / Millipore Corporation
Sequence (P42338 whole entry): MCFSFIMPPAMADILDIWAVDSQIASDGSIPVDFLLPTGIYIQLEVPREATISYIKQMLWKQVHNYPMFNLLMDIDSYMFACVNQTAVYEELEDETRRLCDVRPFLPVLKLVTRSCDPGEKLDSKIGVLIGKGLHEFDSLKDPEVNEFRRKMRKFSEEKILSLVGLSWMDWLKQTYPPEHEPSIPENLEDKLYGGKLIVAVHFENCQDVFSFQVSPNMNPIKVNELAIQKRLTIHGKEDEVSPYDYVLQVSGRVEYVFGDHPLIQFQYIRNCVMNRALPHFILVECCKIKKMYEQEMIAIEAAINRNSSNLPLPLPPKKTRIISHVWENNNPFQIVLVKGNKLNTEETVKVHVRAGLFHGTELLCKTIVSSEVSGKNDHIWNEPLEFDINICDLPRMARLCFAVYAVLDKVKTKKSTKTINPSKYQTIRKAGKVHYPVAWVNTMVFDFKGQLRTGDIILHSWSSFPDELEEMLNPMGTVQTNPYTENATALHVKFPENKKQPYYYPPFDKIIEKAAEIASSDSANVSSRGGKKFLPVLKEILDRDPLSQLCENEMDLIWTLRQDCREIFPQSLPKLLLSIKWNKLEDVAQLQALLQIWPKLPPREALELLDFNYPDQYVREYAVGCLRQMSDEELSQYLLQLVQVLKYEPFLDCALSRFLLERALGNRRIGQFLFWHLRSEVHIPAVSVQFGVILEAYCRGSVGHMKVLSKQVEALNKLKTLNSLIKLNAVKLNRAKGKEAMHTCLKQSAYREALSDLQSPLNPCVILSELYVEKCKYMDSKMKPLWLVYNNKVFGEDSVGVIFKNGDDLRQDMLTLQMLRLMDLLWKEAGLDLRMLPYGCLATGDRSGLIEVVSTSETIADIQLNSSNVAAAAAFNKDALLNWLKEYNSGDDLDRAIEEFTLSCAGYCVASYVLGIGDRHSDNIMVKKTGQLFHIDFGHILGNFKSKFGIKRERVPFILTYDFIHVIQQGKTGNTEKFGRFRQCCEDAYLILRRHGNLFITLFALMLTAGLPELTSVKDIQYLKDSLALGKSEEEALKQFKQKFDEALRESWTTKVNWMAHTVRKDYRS
Sequence (P27986 whole entry partner): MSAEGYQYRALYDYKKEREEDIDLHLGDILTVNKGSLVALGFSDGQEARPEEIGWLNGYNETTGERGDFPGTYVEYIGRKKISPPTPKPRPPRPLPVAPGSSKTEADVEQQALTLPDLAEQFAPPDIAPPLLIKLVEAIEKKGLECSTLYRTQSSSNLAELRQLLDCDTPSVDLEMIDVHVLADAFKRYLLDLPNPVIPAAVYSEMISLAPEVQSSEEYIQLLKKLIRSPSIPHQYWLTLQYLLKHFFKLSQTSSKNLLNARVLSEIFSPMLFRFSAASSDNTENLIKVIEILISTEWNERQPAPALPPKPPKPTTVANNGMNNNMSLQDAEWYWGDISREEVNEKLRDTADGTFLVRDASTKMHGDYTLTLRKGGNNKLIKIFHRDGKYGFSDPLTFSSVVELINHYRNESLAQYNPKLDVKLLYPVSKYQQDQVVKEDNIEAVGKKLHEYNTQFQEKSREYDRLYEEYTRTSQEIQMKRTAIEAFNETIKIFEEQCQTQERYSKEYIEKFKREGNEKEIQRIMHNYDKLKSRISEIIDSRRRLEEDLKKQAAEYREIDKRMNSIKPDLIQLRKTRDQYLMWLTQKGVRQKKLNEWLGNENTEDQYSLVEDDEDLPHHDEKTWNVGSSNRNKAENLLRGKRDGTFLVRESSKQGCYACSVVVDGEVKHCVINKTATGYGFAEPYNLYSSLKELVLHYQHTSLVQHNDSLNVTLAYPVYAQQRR
Test: PI 3-Kinase (human) HTRF assay, PI3K β
Assay type: biochemical
Details: read-out: PI3K β IC50
pIC50: −log10 of the molar value.

{"molecule": "CO[C@@H]1CCN(C(=O)c2cnc3ccc(-c4ccc5oc(N)nc5c4)cn23)C1 [Compound 464]", "pIC50": "< 5.00"}
{"molecule": "Nc1nc2cc(-c3ccc4ncc(C(=O)N5CC[C@H](n6cccn6)C5)n4c3)ccc2o1 [Compound 478]", "pIC50": "> 5.00"}
{"molecule": "Nc1nc2cc(-c3ccc4ncn(C(=O)N5CCOCC5)c4c3)ccc2o1 [Compound 317]", "pIC50": "< 5.00"}
{"molecule": "O=C(c1cnc2ccc(-c3cnc4cc[nH]c4c3)cn12)N1CCOCC1 [Compound 534]", "pIC50": "< 5.00"}
{"molecule": "CC(C)N1CCN(c2cnc3ccc(-c4ccc5oc(N)nc5c4)cc3n2)C(=O)C1 [Compound 392]", "pIC50": "< 5.00"}
{"molecule": "CS(=O)(=O)Nc1cc(-c2ccc3ncc(C(=O)N4CCOCC4)n3c2)cnc1Cl [Compound 418]", "pIC50": "> 7.00"}
{"molecule": "Nc1nc2cc(-c3ccc4ncc(N5CCOCC5)n4c3)ccc2o1 [Compound 53]", "pIC50": "< 5.00"}
{"molecule": "NC(=O)[C@@H]1CCCN1C(=O)C1CN(c2cnc3ccc(-c4ccc5oc(N)nc5c4)cc3n2)C1 [Compound 283]", "pIC50": "< 5.00"}
